assay: Acidity constant (pKa) measurement, Sirius T3 UV-metric, and speciation at pH 7.4; conditions: from experimental pKa
Entries and their measured Double negative form (pH = 7.40) follow.
PROPERTY NAME: Double negative form (pH = 7.40)

• CC(C)(c1cc(Cl)c(O)c(Cl)c1)c1cc(Cl)c(O)c(Cl)c1 [TCBPA, 2,2',6,6'-Tetrachlorobisphenol A] = 11%
• CC(C)(c1ccc(OCC2CO2)cc1)c1ccc(OCC2CO2)cc1 (stereo not drawn) [BADGE, Bisphenol A diglycidyl ether] = 0%
• CC(C)(c1ccc(O)cc1)c1ccc(O)cc1 [BPA, 4,4'-(Propane-2,2-diyl)diphenol, reference compound] = 9.99e-6%

* * *

tested on: HEK293H (PPARγ); conditions: PPARγ bioassay cytotoxicity; dosing range all; linear model
Entries and their measured IC10, linear follow.
PROPERTY NAME: IC10, linear

* Cc1cc(Cc2cc(C)c(O)c(C)c2)cc(C)c1O [TMBPF, Bis(3,5-dimethyl-4-hydroxyphenyl)methane] | 3.65E-06
* Oc1ccc(C(c2ccc(O)cc2)(C(F)(F)F)C(F)(F)F)cc1 [BPAF] | 1.10E-05
* O=C(OCc1ccccc1)c1ccc(O)cc1 [BzPB, Benzyl 4-hydroxybenzoate] | 3.41E-05
* CC(C)(c1ccc(O)c(-c2ccccc2)c1)c1ccc(O)c(-c2ccccc2)c1 [BPPH, 2,2-Bis(2-hydroxy-5-biphenylyl)propane] | 8.25E-06

* * *

Tested on: H4IIe (AhR CALUX)
Conditions: cytotoxicity, H4IIe (AhR assay cells)
Method: Cell culture conditions and bioassay protocols including response detection are provided in Text S2.1–2.4 and Table S3. − Cell viability was determined from cell confluency using an IncuCyte S3 Live-Cell Analysis System (Sartorius AG, Essen, Germany) before and after exposure, except for SH-SY5Y cells (live–dead staining with Nuclear Green LcS1 and propidium iodide, Abcam, UK). […]
Record 1 whenever IC10, H4IIe, AhR is at 70 µM or higher; record 0 when lower.

- CC1(C)C(O)C(C)(C)C1O (racemic): 1
- COC(=O)C(c1ccc(O)cc1)c1ccc(O)cc1 [Bz, Methyl bis(4-hydroxyphenyl)acetate]: 1
- CC(C)(c1ccc(O)c(-c2ccccc2)c1)c1ccc(O)c(-c2ccccc2)c1 [BPPH, 2,2-Bis(2-hydroxy-5-biphenylyl)propane]: 0
- CC(C)c1cc(C(C)(C)c2ccc(O)c(C(C)C)c2)ccc1O: 0

* * *

Entries and their measured IC10, linear transformed follow.
test system: MCF7 (ARE/MMP); details: MMP bioassay cytotoxicity; dosing range all
PROPERTY NAME: IC10, linear transformed

- CC(c1ccc(O)cc1)c1ccc(O)cc1: 7.86E-05
- CC(c1ccccc1)(c1ccc(O)cc1)c1ccc(O)cc1: 3.48E-05
- Cc1cc(Cc2cc(C)c(O)c(C)c2)cc(C)c1O [TMBPF, Bis(3,5-dimethyl-4-hydroxyphenyl)methane]: 1.42E-05
- O=S(=O)(c1ccc(O)cc1)c1ccc(OCc2ccccc2)cc1 [BPS-MPE, 4-[4-(benzyloxy)benzenesulfonyl]phenol]: 1.23E-04
- CC(C)(c1ccc(OCC2CO2)cc1)c1ccc(OCC2CO2)cc1 (stereo not shown): 7.87E-05
- CC(C)(c1cc(Cl)c(O)c(Cl)c1)c1cc(Cl)c(O)c(Cl)c1: 9.30E-05
- CCC(C)(c1ccc(O)cc1)c1ccc(O)cc1: 3.51E-05
- Oc1ccc(Sc2ccc(O)cc2)cc1: 2.05E-04
- O=C(OCc1ccccc1)c1ccc(O)cc1 [BzPB, Benzyl 4-hydroxybenzoate]: 2.97E-04
- C=CCOc1ccc(S(=O)(=O)c2ccc(O)cc2)cc1 [BPS-MAE, 4-[[4-(Allyloxy)phenyl]sulfonyl]phenol]: 8.44E-04
